Test system: BDF1 mice, P388 leukemia ip, median survival T/C
METHOD: NCI In Vivo Anticancer Drug Screen. Data for tumor model P388 Leukemia (intraperitoneal) in B6D2F1 (BDF1) mice
MEASUREMENT_CONTEXT: endpoint: median survival time; dose: 100.0 mg/kg/injection; schedule: Q04DX003 (ip); vehicle: other
Inconclusive results and toxic doses are left out. Rule for the calls: active = survival T/C of 150% or more; inactive = T/C below 125% in these data.
Outcome codes: class 1 = active, class 0 = inactive

# COMPOUND, ANSWER_LABEL
rows = [
    ("CCCCCCCC(=O)Nc1ccc(C)cc1C", "class 0"),
    ("Cc1cc(C(C)(C)CC(C)(C)C)cc(O)c1O", "class 0"),
    ("CC1CC=CCC1COC(OCC1CC=CCC1C)C1CC=CCC1C (configuration not stated)", "class 0"),
    ("CC1CN1P(=O)(OCCC#N)N1CC1C (configuration not stated)", "class 1"),
    ("OCc1ccc(Cl)c(Cl)c1", "class 0"),
    ("O=C(N/N=C/c1cccc(Cl)c1)c1ccccc1", "class 0"),
    ("CCCCCCCCCCCC(=O)CCC", "class 0"),
]

====

Tested on: BDF1 mice, P388 leukemia ip, median survival T/C
METHOD: NCI In Vivo Anticancer Drug Screen. Data for tumor model P388 Leukemia (intraperitoneal) in B6D2F1 (BDF1) mice
MEASUREMENT_CONTEXT: endpoint: median survival time; dose: 50.0 mg/kg/injection; schedule: Q01DX009 (ip); vehicle: saline with Tween-80; higher = longer survival
Toxic doses and inconclusive results are not listed.

# COMPOUND, T/C
data = [
    ("COc1cccn(C/C=C(\\C)CCC=C(C)C)c1=O", "109 % of control"),
    ("Fc1ccc(NC(=S)SCc2ccc3c(c2)OCO3)cc1F", "109 % of control"),
    ("CN(C)c1ccc(N(C)C)c(C(O)(c2ccccc2)c2ccccc2)c1", "95 % of control"),
    ("Cc1c(Cl)cnc(N)c1Cl (tested in a mixture with another compound)", "96 % of control"),
    ("CN(C=C(C#N)C#N)c1ccccc1", "105 % of control"),
    ("CC(N)Cc1ccc(N(C)C)cc1F (stereo not given)", "96 % of control"),
    ("COC(=O)/C=C1\\Sc2ccc(Cl)cc2NC1=O", "93 % of control"),
    ("O=S1(=O)C=C(c2ccccc2)C1", "108 % of control"),
    ("O=[N+]([O-])c1ccc(NS(=O)(=O)c2cc(Cl)ccc2Cl)c([N+](=O)[O-])c1", "105 % of control"),
    ("Cc1[nH]c(=O)[nH]c(=O)c1I", "105 % of control"),
]

====

Tested on: BDF1 mice, P388 leukemia ip, median survival T/C
METHOD: NCI In Vivo Anticancer Drug Screen. Data for tumor model P388 Leukemia (intraperitoneal) in B6D2F1 (BDF1) mice
MEASUREMENT_CONTEXT: endpoint: median survival time; dose: 50.0 mg/kg/injection; schedule: Q04DX003 (ip); vehicle: saline; higher = longer survival
Toxic doses and inconclusive results are not listed.

# MOLECULE, T/C
data = [
    ("Cc1nn(C)c(N)c1C#N", "97 % of control"),
    ("C[n+]1ccc2ccccc2c1", "104 % of control"),
    ("CCCC(N=Cc1ccccc1O)C(=O)O.CCCC(N=Cc1ccccc1O)C(=O)O.[Fe] (stereo not drawn)", "90 % of control"),
    ("O=C(CSc1ccccc1)NCc1cnccn1", "108 % of control"),
    ("CCN(CC)P(=O)(N1CC1C)N1CC1C (stereo not drawn)", "113 % of control"),
    ("CCOC(=O)c1nc2nc(Cl)c(Cl)nc2[nH]1", "98 % of control"),
    ("NC1CONC1=O (stereo not drawn)", "100 % of control"),
    ("COc1cc(/C=C(/C)[N+](=O)[O-])ccc1O", "109 % of control"),
]

====

Known T/C of a selection of compounds
Test system: BDF1 mice, P388 leukemia ip, median survival T/C
METHOD: NCI In Vivo Anticancer Drug Screen. Data for tumor model P388 Leukemia (intraperitoneal) in B6D2F1 (BDF1) mice
MEASUREMENT_CONTEXT: endpoint: median survival time; dose: 100.0 mg/kg/injection; schedule: Q01DX009 (ip); vehicle: saline with Tween-80; higher = longer survival
Toxic doses and inconclusive results are not listed.
VALUE_TYPE: T/C

# COMPOUND, SUBJECT_OF_TEST, READING
measured = [
    ("CN1C(=O)NNC(=O)c2ccccc21", "BDF1 mice, P388 leukemia ip, median survival T/C", "100 % of control"),
    ("C[Si](C)(C)O/C=C1/CCOC1=O", "BDF1 mice, P388 leukemia ip, median survival T/C", "110 % of control"),
    ("Cc1ccc(CC(N)c2nn[nH]n2)cc1 (stereo unspecified)", "BDF1 mice, P388 leukemia ip, median survival T/C", "100 % of control"),
    ("CC(=O)Nc1ccc2c(c1)C(N)c1ccccc1-2 (stereo unspecified)", "BDF1 mice, P388 leukemia ip, median survival T/C", "104 % of control"),
    ("C[Si](C)(C)C1CO1 (stereo unspecified)", "BDF1 mice, P388 leukemia ip, median survival T/C", "106 % of control"),
    ("CN(C)c1ccc([N+](=O)[O-])cn1", "BDF1 mice, P388 leukemia ip, median survival T/C", "98 % of control"),
]

====

Test system: BDF1 mice, P388 leukemia ip, median survival T/C
METHOD: NCI In Vivo Anticancer Drug Screen. Data for tumor model P388 Leukemia (intraperitoneal) in B6D2F1 (BDF1) mice
MEASUREMENT_CONTEXT: endpoint: median survival time; dose: 25.0 mg/kg/injection; schedule: Q04DX003 (ip); vehicle: water; higher = longer survival
Inconclusive results and toxic doses are left out. Residues, ends and D or L forms follow the SMILES beside them.

# MOLECULE, SUBJECT_OF_TEST, T/C
records = [
    ("O=C(C[n+]1ccccc1)N/N=C/c1ccc([N+](=O)[O-])s1", "BDF1 mice, P388 leukemia ip, median survival T/C", "90 % of control"),
    ("O/C(=C/C(=S)S)c1ccco1", "BDF1 mice, P388 leukemia ip, median survival T/C", "94 % of control"),
    ("NC(Cc1c[nH]c2ccccc12)C(=O)OCc1ccccc1 (stereo unspecified)", "BDF1 mice, P388 leukemia ip, median survival T/C", "108 % of control"),
    ("O=C(c1c(F)c(F)c(F)c(F)c1F)N1CC1", "BDF1 mice, P388 leukemia ip, median survival T/C", "104 % of control"),
    ("CC(C)C(NC(=O)C(NC(=O)C(CCCN=C(N)N)NC(=O)C(N)CCCCN)C(C)C)C(N)=O (stereo unspecified) (H-KRVV-NH2; configuration not given here)", "BDF1 mice, P388 leukemia ip, median survival T/C", "97 % of control"),
    ("COc1ccc(CNCCNCc2ccc(OC)cc2)cc1", "BDF1 mice, P388 leukemia ip, median survival T/C", "95 % of control"),
]

====

Tested on: BDF1 mice, P388 leukemia ip, median survival T/C
METHOD: NCI In Vivo Anticancer Drug Screen. Data for tumor model P388 Leukemia (intraperitoneal) in B6D2F1 (BDF1) mice
MEASUREMENT_CONTEXT: endpoint: median survival time; dose: 6.25 mg/kg/injection; schedule: Q01DX009 (ip); vehicle: Klucel (hydroxypropylcellulose) (HPC)
Description: The antitumor activity of compounds was measured in mice bearing transplantable tumors. Survival or tumor size were measured and the results are expressed as the measurement made in the treated group (T) divided by the measurement made in the vehicle treated control group (C). The tumor model used in this assay is P388 Leukemia (intraperitoneal) in B6D2F1 (BDF1) mice
Toxic doses and inconclusive results are not listed. How the source made its calls: active means survival T/C of 150% or more; inactive means T/C below 125% in these data.
Outcome codes: true (1) for active, false (0) for inactive

# QUERY_SMILES, ANSWER_LABEL
rows = [
    ("O=C(O)CCSSc1ccc([N+](=O)[O-])cc1[N+](=O)[O-]", "false (0)"),
    ("CCCCCCCCCCCCCCCCCCOc1ccccn1", "false (0)"),
    ("CN=C(N)c1ccc(NC(=O)c2ccc(C(=O)Nc3ccc(C(N)=NC)cc3)c(N)c2)cc1", "true (1)"),
]

====

System: BDF1 mice, P388 leukemia ip, median survival T/C
METHOD: NCI In Vivo Anticancer Drug Screen. Data for tumor model P388 Leukemia (intraperitoneal) in B6D2F1 (BDF1) mice
MEASUREMENT_CONTEXT: endpoint: median survival time; dose: 50.0 mg/kg/injection; schedule: Q04DX003 (ip); vehicle: saline with Tween-80
Inconclusive results and toxic doses are left out. How the source made its calls: active means survival T/C of 150% or more; inactive means T/C below 125% in these data.
Classes used: 1 (active), 0 (inactive)

# MOLECULE, ANSWER_LABEL
records = [
    ("CCCCCCCCN(c1ccc(I)cc1)S(=O)(=O)c1ccc(C)cc1", 0),
    ("CCC(=O)c1ccc(OCC(O)CN2CCC(O)(c3ccccc3)CC2)cc1 (configuration not stated)", 0),
    ("CNC(C)(C)C(SSSC(c1ccc(Cl)cc1)C(C)(C)NC)c1ccc(Cl)cc1 (configuration not stated)", 0),
    ("O=C(O)CNC(=O)Nc1ccccc1", 0),
    ("O=C(Nc1ccc(C2=NCCN2)cc1)Nc1cccc(NC(=O)Nc2cccc(C3=NCCN3)c2)c1", 1),
    ("CN1CCOC1=Nc1ccc(Cl)cc1", 0),
    ("COc1cc2ccc3c4cc5c(cc4cnc3c2cc1OC)OCO5", 0),
]
